Assay: melting temperature; fluorescence melt of hairpins on a sequencing array, two-state fit, raised by 9.35 °C to match UV melts
Conditions: sodium 0.088 M

biopolymer.sequence	Tm
GCGACGAATCGC ((((....))))	49.6 °C
GTTATCGCGAAAGCGAAC (((..(((....))))))	29.8 °C
GATTCGAAAGAATC (((((....)))))	51.5 °C
GATCGACGGCTCGATC ((((((....))))))	50.5 °C

====

Measured Tm of individual entries
Assay: melting temperature; fluorescence melt of hairpins on a sequencing array, two-state fit, raised by 9.35 °C to match UV melts
Conditions: sodium 0.088 M
result.type: Tm (°C)

biopolymer.sequence	endpoint.result
GCTCCCGGAAACGGGAAC (.(((((....))))).)	43
GCCGCGCGAAAGCTCTGC ((.(.((....)).).))	30.7
GAACATCCGAAAGGATTC (((..(((....))))))	26.3
GAATGGGGAAACCTATTC ((((.((....)).))))	37.9
GGCTACGAAAGTATGCC ((((((....))).)))	54.6
GATCCAATTTTGGATC ((((((....))))))	54
GGATTCGAAAGAAAATCC ((((((....)))..)))	29.9
GTGCACCGAAAGGTACAC (((.(((....))).)))	53.7
GCATCTGGAAACAGACGC ((.((((....)))).))	44.2
GCAGGACGAAAGTCTGC (((.(((....))))))	58.4
GTGGTCGAAAGACTGCAC ((((((....)))..)))	40.8
GGTGATCCGAAAGGAACC (((..(((....))))))	33.2
GATCCGTGGGCGGATC ((((((....))))))	66.1
GGACTGGGAAACCGGTTC (.((.((....)).)).)	37.5
GGGCACGGAAACACGCCC ((((..(....)..))))	46.2
GAGGGACCGAAAGGTCTC (((..(((....))))))	38.3
GGAGACGAAAGTCCTTCC ((((((....)))..)))	42.6
GATCTAGAGTAGATC ((((((...))))))	34.8
CGAGCCGGAAACGGTTCG (((.(((....))).)))	56
GTGTACGAAAGTACAC ((((((....))))))	69.1
GATCGTCCACACGATC ((((((....))))))	53.9
GGCACTGGAAACAATGCC ((((.((....)).))))	42.7
GTCTCGGGAAACCGAGGC (.(((((....))))).)	57.6
GTCTCACGAAAGTGTGAC (((.(((....))).)))	53.8
GATCAACATGTTGATC ((((((....))))))	54.7
GCGGTCGAAAGACCCGC ((((((....))).)))	66.8
GGTTGCGAAAGCACAACC ((((((....)))..)))	44.2
GATCGCTTAGGCGATC ((((((....))))))	68.6
GATCCACTGCTGGATC ((((((....))))))	50.4
GACCGCGAAAGCGTGGTC ((((((....)))..)))	50.9
GTGCTGTCGAAAGACCAC (((..(((....))))))	45.4
GTTTGGCGAAAGCCCAAC (((.(((....))).)))	39.1
GATCCCAGCGGGATC ((((((...))))))	68.9
GTGTCGGGAAACTGGCAC (((.(.(....).).)))	45.9
GGCAGCGAAAGCTGCGCC ((((((....)))..)))	65.7
GGCTTTGGAAACAAAACC ((.((((....)))).))	36.8
GCGTGGCGAAAGCCGGGC ((..(((....)))..))	64.7
GTGGCCGAAAGGCAACAC ((((((....)))..)))	55.5
GTTGAAGGAAACTTCAGC (.(((((....))))).)	41.4
GGCATGGGAAACCACGCC (((.(((....))).)))	49.4

====

Assay: folding enthalpy; higher = less favourable; fluorescence melt of hairpins on a sequencing array, two-state fit
Details: sodium 0.088 M

biopolymer.sequence	folding enthalpy [kcal/mol]
GGGATGGGAAACCATTCC ((.((((....)))).))	-31.1
GCACACGAAAGTGAATGC ((((((....)))..)))	-23.9
GCCTTCGAAAGAACGGGC ((((((....)))..)))	-23
GCGCTGACGAAAGTCCGC (((..(((....))))))	-25.1
GCGACAGGAAACTGTCAC (.(((((....))))).)	-16.6
GTTGGAGGAAACTCCAGC (.(((((....))))).)	-21.1
GGAGCTCGAAAGAGTCC (((.(((....))))))	-17.8
GTATGCGAAAGCAGATAC ((((((....)))..)))	-12.9
GCTGATCGAAAGATAGC (((.(((....))))))	-23.1
GGGTAGAAATACCC (((((....)))))	-23.1
CGGTCGGAAACGAGCCCG ((((((....)))..)))	-14
GATCCTCCAAAGGATC ((((((....))))))	-28.8
GATCGGTGCCCGATC ((((((...))))))	-40.8
GTCTTCGAAAGAAAGAC ((((((....))).)))	-21.8
GAAAACGAAAGTTCTTC ((((((....))).)))	-17.8
CCTCGGAAACGAGG (((((....)))))	-25.8
GATCCACCTTGGATC ((((((...))))))	-31.7
GTAAGAGCGAAAGCTTAC (((..(((....))))))	-14.9
GCTACCTCGAAAGAGAGC (((..(((....))))))	-16.3
GCGTGCACGAAAGTGCGC (((..(((....))))))	-9.64
GATCGCAATGGCGATC ((((((....))))))	-35.6
GATCTCGATGGAGATC ((((((....))))))	-33.4
GCGTCACGAAAGTGCCGC (((.(((....))).)))	-46.1
GTGCCACGAAAGTGCAC (((.(((....))))))	-27.5
GGACAAGGAAACTTGCCC ((.((((....)))).))	-20.3
GCTGTGCGAAAGCGAAGC (((..((....))..)))	-17.9
GTTTTGGAAACAAAAC ((((((....))))))	-31.6
GATCCCATCGGGATC ((((((...))))))	-36.5
GCGGTGGGAAACCACCAC (.(((((....))))).)	-12.4
GTTGGCTCGAAAGAGAAC (((..(((....))))))	-17.1
GTCCTCCGAAAGGATGAC (((.(((....))).)))	-30.7
GGGTTAGGAAACCAACCC (((((.(....).)))))	-33.9
GCAATACCGAAAGGTTGC (((..(((....))))))	-21.6
GCTAACGAAAGTTCTAGC ((((((....)))..)))	-11.4
GGATAAGGAAACTTATTC (.(((((....))))).)	-21.2
GCACTTGGAAACAAGTGC (((((((....)))))))	-34.6
GCCACGCGAAAGCGATGC ((..(((....)))..))	-12.7
GTTACACGAAAGTGCAAC (((.(((....))).)))	-23.6

====

Measured Tm of individual entries
Test: melting temperature; fluorescence melt of hairpins on a sequencing array, two-state fit, raised by 9.35 °C to match UV melts
Conditions: sodium 0.088 M

biopolymer.sequence	scale.unit	Tm
GGCTATCGAAAGATCGCC (((.(((....))).)))	°C	50.6
GATCTTAAACAAGATC ((((((....))))))	°C	38.7
GTAGCACGAAAGTGTAC (((.(((....))))))	°C	40.4
GCAGTCCGAAAGGAGTGC (((.(((....))).)))	°C	65.8
GATCAACACATTGATC ((((((....))))))	°C	44.9
GTCCGAGGAAACTCGGGC (.(((((....))))).)	°C	59.5
CGTGCGGAAACGCGCACG ((((((....)))..)))	°C	64
GATCGGAGCGCCGATC ((((((....))))))	°C	55
GGTTCCTCGAAAGAGACC (((..(((....))))))	°C	25.8
GTTTACCGAAAGGTTAAC (((.(((....))).)))	°C	43.7
GCGGCTCCCGC ((((...))))	°C	56.9
GCCTTGCGAAAGCGAAGC ((.(.((....)).).))	°C	45
GCTGGGCGAAAGCGTAGC (((..((....))..)))	°C	52.1
GTTCCCGAAAGGGGTAAC ((((((....)))..)))	°C	29.8
GTGAACGAAAGTTACAC ((((((....))).)))	°C	38.8
GATCGTTCAACGATC ((((((...))))))	°C	55.5
GTATACGAAAGTAGCTAC ((((((....)))..)))	°C	24.4
GATCCCTGTCGGGATC ((((((....))))))	°C	60
GTTCTCGAAAGAGATAAC ((((((....)))..)))	°C	28.8
GGTTGCGGAAACGTGACC (((..((....))..)))	°C	48.8
GTCTCAGGAAACTGGGAC (((.(((....))).)))	°C	49.8
GGTTTCGAAAGAACGACC ((((((....)))..)))	°C	29.6
GTCGCGTCGAAAGACGAC (((..(((....))))))	°C	35.5
GGCTACGAAAGTAGGGCC ((((((....)))..)))	°C	47.1
GGCGGAACGAAAGTTGCC (((..(((....))))))	°C	47.6
GGTTAACGAAAGTTACC (((.(((....))))))	°C	43.9
GATCGTGCAGACGATC ((((((....))))))	°C	58.9
GGCATCCGAAAGGAGGCC (((.(((....))).)))	°C	69.3
GGGTGTGGAAACACGTCC ((..(((....)))..))	°C	40.1
GGCGCGGCGAAAGCCGCC (((..(((....))))))	°C	48.6
GATCTAGCACTAGATC ((((((....))))))	°C	47.1
GCCCGGCGAAAGCAAGGC (((..((....))..)))	°C	59
GCCTACGAAAGTATGGGC ((((((....)))..)))	°C	46.5
GATCTTCTCCAAGATC ((((((....))))))	°C	41.1
GGCATCGAAAGATTTGCC ((((((....)))..)))	°C	40.7
GCATCTGGAAACAGATAC (.(((((....))))).)	°C	36.3
GGGTTGGGAAACCAACTC (.(((((....))))).)	°C	49.7
GGCGTTTCGAAAGAAGCC (((..(((....))))))	°C	42.5
GGTGAAGGAAACTTCGCC ((.((((....)))).))	°C	52.6
GGGTTTCCGAAAGGACCC (((..(((....))))))	°C	40.6
GCATCGGCGAAAGCCTGC (((..(((....))))))	°C	39.8
GACCTTGGAAACAGGGTC ((((.((....)).))))	°C	47
GGGTCCGAAAGGACTCCC ((((((....)))..)))	°C	50.6
GCGTAGCTACGC ((((....))))	°C	68.1
GTTACAGAAATGTAAC ((((((....))))))	°C	46.1

Where do the numbers come from? From the array DNA melting data of Ke et al. (doi:10.1101/2024.01.08.574731).
